# Test target: Androgen receptor (Homo sapiens)
# Measurement description: qHTS assay to identify small molecule antagonists of the androgen receptor (AR) signaling pathway using the MDA cell line in the presence of 0.5 nM R1881 (AID 1259243); further: nearly all actives have a fitted effect of over 50% in size
# Condition context: MDA-kb2 MMTV-luciferase, R1881 0.5 nM, 16 h; series mostly up to 92.4 µM
Records with an inconclusive call do not appear. The source made the active and inactive calls. The call rests on the fitted dose curve; in most records, active means well fitted inhibition curve with a large enough effect in the repeat runs; inconclusive means weak or mixed curves; inactive means no such curve, though single readings can be large or run the other way.
Pick one: 1 (active), -1 (inactive)

Answered cases to consult:
Compound	Label class
Cc1cc(C)cc(N)c1	-1
C1COC1	-1
O=C=Nc1cccc(C(F)(F)F)c1	-1
CCCCC(CC)CN (stereo not given)	-1
CC(C)=CCC/C(C)=C/CC/C(C)=C/C(=O)OCC(=O)[C@@]1(O)CC[C@H]2[C@@H]3CCC4=CC(=O)C=C[C@]4(C)[C@H]3[C@@H](O)C[C@@]21C	-1
OC(CCN1CCCC1)(c1ccccc1)C1CCCCC1 (stereo not given)	-1
CC/C=C1/OC(=O)c2ccccc21	-1
C=CCc1ccccc1OCC(O)CNC(C)C (stereo not given)	-1

So what was the verdict on `C[C@@H](O[C@H]1OCCN(Cc2n[nH]c(=O)[nH]2)[C@H]1c1ccc(F)cc1)c1cc(C(F)(F)F)cc(C(F)(F)F)c1` in this test?
1

So what was the verdict on `CCOc1ccc(Cc2nccc3cc(OCC)c(OCC)cc23)cc1OCC` in this test?
1

So what was the verdict on `C=C(C)[C@@H]1CCC2=CCC[C@@H](C)[C@]2(C)C1` in this test?
1

So what was the verdict on `C[C@@H]1CC(=O)NN=C1c1ccc(NN=C(C#N)C#N)cc1` in this test?
1

So what was the verdict on `CC1=Nc2ccc3ccccc3c2C1(C)C` in this test?
1

* * *

# Test target: Peroxisome proliferator-activated receptor gamma (Homo sapiens) (UniProt P37231)
# Sequence (P37231 whole entry, looked up): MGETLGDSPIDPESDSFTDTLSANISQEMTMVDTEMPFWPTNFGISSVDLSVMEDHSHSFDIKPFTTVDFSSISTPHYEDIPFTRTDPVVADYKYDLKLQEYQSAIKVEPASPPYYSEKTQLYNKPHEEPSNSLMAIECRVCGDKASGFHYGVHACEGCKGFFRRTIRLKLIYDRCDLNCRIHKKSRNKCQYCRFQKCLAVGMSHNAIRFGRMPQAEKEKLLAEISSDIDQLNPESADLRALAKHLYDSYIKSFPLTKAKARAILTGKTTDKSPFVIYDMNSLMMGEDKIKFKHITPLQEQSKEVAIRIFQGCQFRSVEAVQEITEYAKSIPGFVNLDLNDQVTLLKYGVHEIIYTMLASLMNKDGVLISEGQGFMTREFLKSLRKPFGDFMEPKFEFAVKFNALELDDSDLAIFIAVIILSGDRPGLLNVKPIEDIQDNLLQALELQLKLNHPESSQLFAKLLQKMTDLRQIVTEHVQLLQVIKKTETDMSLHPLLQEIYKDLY
# Measurement description: qHTS assay to identify small molecule agonists of the peroxisome proliferator-activated receptor gamma (PPARg) signaling pathway (AID 743094); further: on the % scale 0 is the no-effect control and ±100 the full control effect
# Condition context: HEK293H PPARg-UAS-bla, beta-lactamase FRET ratio, 17 h; series mostly up to 57 µM
Results filed as inconclusive are left out. Calls of active or inactive are those of the source. Calls follow the shape of the dose curve; as a rule, active = well fitted activation curve with a large enough effect in the signal ratio in the repeat runs (not every such curve was filed as active); inconclusive = weak or mixed curves, or effect the other way; inactive = no such curve, though single readings can be large or run the other way; the % refers to the signal ratio.
Pick one: true (1) = active, false (0) = inactive

Answered cases to consult:
Molecule	Label class
CCC=CC#N	false (0)
CC=C(Cl)Cl	false (0)

So what was the verdict on `CCOC(=O)c1ccc(I)cc1` in this test?
false (0)

So what was the verdict on `O=C=Nc1ccc(Cl)c(Cl)c1` in this test?
false (0)

So what was the verdict on `O=C1c2ccccc2C(=O)N1CCc1noc(-c2ccc(CN3CCCCCC3)s2)n1` in this test?
false (0)

* * *

# Measurement description: qHTS assay for identifying genotoxic compounds that show differential cytotoxicity against isogenic chicken DT40 cell lines with known DNA damage response pathways - Rev3 mutant cell line (AID 743014); further: nearly all actives have a fitted effect of over 55% in size
# Condition context: chicken DT40 Rev3-/- viability, CellTiter-Glo, 40 h; series mostly up to 68.4 µM
Records with an inconclusive call do not appear. Calls of active or inactive are those of the source. The call rests on the fitted dose curve; in most records, active means well fitted cell-killing curve with a large enough effect in the repeat runs; inconclusive means weak or mixed curves, or effect the other way; inactive means no such curve, though single readings can be large or run the other way.
Pick one: TRUE = active, FALSE = inactive

Answered cases to consult:
Compound	Label class
CC(=O)c1ccc([N+](=O)[O-])cc1	FALSE
Cc1ccc(OC(=O)c2ccccc2O)cc1	FALSE
CN1CCCC(n2nc(Cc3ccc(Cl)cc3)c3ccccc3c2=O)CC1 (stereo unspecified)	TRUE
Nc1nnc(-c2ccc([N+](=O)[O-])o2)o1	TRUE

So what was the verdict on `CCn1cc(C(=O)O)c(=O)c2cc(F)c(N3CCNCC3)cc21` in this test?
FALSE

So what was the verdict on CN1C(=O)N(c2ccccc2Br)Cc2cnc(Nc3ccc4c(c3)OCC(CO)O4)nc21 (stereo unspecified) in this test?
TRUE

* * *

# Measurement description: A CellTox Green Cytotoxicity Assay to monitor cytotoxicity in HepG2 cells - 24 hour (AID 1224878); further: nearly all actives have a fitted effect of over 45% in size; on Cytotoxicity: on the % scale 0 is the no-effect control and ±100 the full control effect
# Condition context: CellTox Green fluorescence; series mostly up to 76.8 µM
Results filed as inconclusive are left out. Calls of active or inactive are those of the source. The call rests on the fitted dose curve; in most records, active means well fitted activation curve with a large enough effect in the repeat runs; inconclusive means weak or mixed curves; inactive means flat fitted curve, though single readings scatter.
Pick one: active, inactive

Answered cases to consult:
Molecule	Label class
C=CC(=O)OCC1CC2CC1C1CCC(COC(=O)C=C)C21 (stereo unspecified)	active
CCOC(=O)c1ccc(I)cc1	inactive
Cc1cc(O)ccc1O	inactive

So what was the verdict on `OC1(c2ccccc2)CCNCC1` in this test?
inactive

So what was the verdict on `CCCCCC#CC(=O)OC` in this test?
inactive

So what was the verdict on `O[C@@H]1CO[C@H]2[C@@H]1OC[C@@H]2O` in this test?
inactive

So what was the verdict on `O=c1c(O)c(-c2ccc(O)cc2)oc2cc(O)cc(O)c12` in this test?
inactive

* * *

# Measurement description: qHTS RealTime-Glo MT Cell Viability Assay in HEK293 cells - 16 hour (AID 1224872); further: top concentration of the series differs between compounds; on the % scale 0 is the no-effect control and ±100 the full control effect; nearly all actives have a fitted effect of over 50% in size
# Condition context: RealTime-Glo luminescence; series mostly up to 76.8 µM
Results filed as inconclusive are left out. Activity calls are given as the source filed them. Calls follow the shape of the dose curve; as a rule, active = well fitted cell-killing curve with a large enough effect in the repeat runs; inconclusive = weak or mixed curves, or effect the other way; inactive = flat fitted curve, though single readings scatter.
Pick one: active, inactive

Compound	Label class
C=C(C)C(=O)OCCOCCOC(=O)C(=C)C	inactive
CC1(C)[C@H](C(=O)O)N2C(=O)C[C@H]2S1(=O)=O	inactive
C=CC(=O)[O-].C=CC(=O)[O-].[Zn+2]	inactive
O=[N+]([O-])c1ccc(Nc2ccc(Nc3ccccc3)c(S(=O)(=O)O)c2)c([N+](=O)[O-])c1	inactive
c1ccc(C[n+]2cccc3ccccc32)cc1	inactive
O=C1c2ccccc2C(=O)C1(O)O	inactive

So what was the verdict on `NCCNCCO` in this test?
inactive

So what was the verdict on `CCCCCCCC/C=C\CCCCCCCCCCCC(=O)O` in this test?
inactive

So what was the verdict on `c1ccc2c(c1)CCc1ccccc1N2` in this test?
inactive

So what was the verdict on `CC(C)=CC(=O)C=C(C)C` in this test?
inactive

So what was the verdict on `O[C@@H]1CO[C@H]2[C@@H]1OC[C@@H]2O` in this test?
inactive

So what was the verdict on `CC(C)C=O` in this test?
inactive

So what was the verdict on `CN1CC(=O)N2[C@H](c3ccc4c(c3)OCO4)c3[nH]c4ccccc4c3C[C@@H]2C1=O` in this test?
inactive

* * *

# Measurement description: qHTS assay to identify small molecule agonists of H2AX - cell viability counter screen (AID 1224847); further: nearly all actives have a fitted effect of over 30% in size
# Condition context: CHO-K1 viability, CellTiter-Glo luminescence, 3 h; series mostly up to 154 µM
Inconclusive results are not listed. The source made the active and inactive calls. Calls come from the whole dose curve.
Pick one: 1 (active), -1 (inactive)

Answered cases to consult:
Compound	Label class
N#CCc1ccc(Cl)cc1Cl	-1
O=Cc1c2ccccc2c(Cl)c2ccccc12	-1
CC(C)(C)CC(=O)OCC(=O)[C@@]1(O)CC[C@H]2[C@@H]3CCC4=CC(=O)C=C[C@]4(C)[C@H]3[C@@H](O)C[C@@]21C	1

So what was the verdict on `OCCOCC#CCOCCO` in this test?
-1

So what was the verdict on `CCCCCCCCN` in this test?
-1

* * *

# Measurement description: qHTS assay to identify small molecule antagonists of the estrogen related receptor signaling pathway with the pleiotropic PPARgamma coactivator (PGC) from Tox21 10K library (AID 1224841); further: actives are mostly falling curves and most rising ones were filed inactive; nearly all actives have a fitted effect of over 50% in size
# Condition context: PGC/ERR reporter cell line, ONE-Glo luciferase, 18 h; series mostly up to 92.4 µM
Inconclusive results are not listed. Activity calls are given as the source filed them. No rule for the calls is given here.
Pick one: active, inactive

Answered cases to consult:
Compound	Label class
c1ccc(C[n+]2cccc3ccccc32)cc1	active
O=[N+]([O-])c1cc(C2CCCCC2)c(O)c([N+](=O)[O-])c1	active

So what was the verdict on `NCCNCCO` in this test?
inactive

So what was the verdict on `CC(CO)CO` in this test?
inactive

So what was the verdict on `O=C=Nc1ccc(Cl)c(Cl)c1` in this test?
inactive

So what was the verdict on `CN1C[C@H](C(=O)N[C@]2(C)O[C@@]3(O)[C@@H]4CCCN4C(=O)[C@H](Cc4ccccc4)N3C2=O)C[C@@H]2c3cccc4[nH]cc(c34)C[C@H]21` in this test?
inactive

So what was the verdict on `O=C(O)CCCCCCCCCCCBr` in this test?
inactive

So what was the verdict on `O=C1c2ccccc2C(=O)c2c(O)c(O)cc(O)c21` in this test?
inactive

So what was the verdict on `Oc1ccc(Cl)c2cccnc12` in this test?
active

So what was the verdict on `C=Cc1ccc(S(=O)(=O)O)cc1` in this test?
inactive

So what was the verdict on `COc1cc(C(=O)NCCCCCC(=O)O)cc(OC)c1OC` in this test?
inactive

So what was the verdict on `CCCCCCNC(=O)n1cc(F)c(=O)[nH]c1=O` in this test?
inactive

So what was the verdict on `CC[N+](CC)(CCNC(=O)C(=O)NCC[N+](CC)(CC)Cc1ccccc1Cl)Cc1ccccc1Cl` in this test?
inactive

So what was the verdict on `CN1C(=O)c2ccccc2C1=O` in this test?
inactive

So what was the verdict on `C=C1C[C@@]23CC[C@H]4[C@@](C)(CCC[C@@]4(C)C(=O)O[C@@H]4O[C@H](CO)[C@@H](O)[C@H](O)[C@H]4O)[C@@H]2CC[C@]1(O[C@@H]1O[C@H](CO)[C@@H](O)[C@H](O[C@@H]2O[C@H](CO)[C@@H](O)[C@H](O)[C@H]2O)[C@H]1O[C@@H]1O[C@H](CO)[C@@H](O)[C@H](O)[C@H]1O)C3` in this test?
inactive

So what was the verdict on `Cc1cc(O)ccc1O` in this test?
inactive

So what was the verdict on CN1CCCC(n2nc(Cc3ccc(Cl)cc3)c3ccccc3c2=O)CC1 (stereo not drawn) in this test?
inactive

So what was the verdict on `CC1(C)[C@@H](OC(=O)CCC(=O)O)CC[C@]2(C)[C@H]3C(=O)C=C4[C@@H]5C[C@@](C)(C(=O)O)CC[C@]5(C)CC[C@@]4(C)[C@]3(C)CC[C@@H]12` in this test?
inactive
